Cited source: patent US5262537A

# Assayed system: 5-HT3 (Rattus norvegicus, UniProt P35563)
# Procedure details: biochemical
# Type: binding, Male Sprague-Dawley rats
# Measurement setup: 0.2 nM [3H]GR65630, rat entorhinal cortex, 40 minutes, room temperature; read-out: 5-HT3 IC50
Parameter: IC50 (µM)

Example cases with answers are listed next.
COc1ccccc1NC(=O)[C@@H]1Cc2[nH]cnc2CN1: 0.00853
COc1ccc2oc(C(=O)[C@@H]3Cc4[nH]cnc4CN3C)cc2c1: 12.9
COC(=O)c1ccccc1NC(=O)[C@@H]1Cc2[nH]cnc2CN1C: 0.029
CN1Cc2nc[nH]c2C[C@@H]1C(=O)Nc1ccccc1: 0.0572
CN1Cc2nc[nH]c2C[C@H]1C(=O)c1cccs1: 0.648
CN1Cc2nc[nH]c2C[C@H]1C(=O)Nc1ccccc1Oc1cccc(F)c1: 0.00709
COc1ccccc1NC(=O)[C@@H]1Cc2nc[nH]c2C(C)(C)N1: 0.0217
CCN1Cc2nc[nH]c2C[C@H]1C(=O)Nc1ccccc1O: 0.0176
CN1Cc2nc[nH]c2C[C@H]1C(=O)Nc1ccccc1Cl: 0.0267
COc1ccccc1NC(=O)[C@@H]1Cc2[nH]cnc2C(C)(C)N1C: 0.0141

1 = CC(=O)c1ccccc1NC(=O)[C@@H]1Cc2[nH]cnc2CN1C
2 = COc1ccccc1NC(=O)[C@H]1Cc2[nH]cnc2CN1C
Determine, for 1 and 2 , which has the greater value of IC50. Return value: the label identifying the chosen record.
2
(2: 0.0476 µM, 1: 0.00418 µM)

---

# Assayed system: 5-HT3 (Rattus norvegicus, UniProt P35563)
# Sequence (P35563 24-483): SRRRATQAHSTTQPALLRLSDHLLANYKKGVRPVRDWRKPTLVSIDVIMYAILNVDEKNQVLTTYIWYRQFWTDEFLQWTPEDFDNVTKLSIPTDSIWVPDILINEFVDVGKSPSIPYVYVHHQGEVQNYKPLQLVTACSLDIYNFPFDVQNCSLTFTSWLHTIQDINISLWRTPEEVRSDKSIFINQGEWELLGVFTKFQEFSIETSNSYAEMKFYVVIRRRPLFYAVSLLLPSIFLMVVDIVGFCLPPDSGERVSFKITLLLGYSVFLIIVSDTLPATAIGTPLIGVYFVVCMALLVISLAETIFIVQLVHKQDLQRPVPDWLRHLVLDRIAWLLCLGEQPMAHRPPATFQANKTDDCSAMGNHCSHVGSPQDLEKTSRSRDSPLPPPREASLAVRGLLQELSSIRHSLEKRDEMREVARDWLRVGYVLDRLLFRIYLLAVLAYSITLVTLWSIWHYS
# Procedure details: biochemical
# Assay type: binding, Male Sprague-Dawley rats
Parameter: IC50 (nM)
Respond numerically; units are nM and should not be typed.

CN1Cc2nc[nH]c2C[C@@H]1C(=O)c1ccccc1: 58.5

Value lookup for IC50; key = COc1ccccc1C(=O)[C@@H]1Cc2[nH]cnc2CN1C
2380

Value lookup for IC50; key = CN1Cc2nc[nH]c2C[C@H]1C(=O)c1ccccc1
48.4

Value lookup for IC50; key = CCN(CC)CCNC(=O)c1cc(Cl)c(N)cc1OC [Metaclopramide, reference compound]
514

---

# Assayed system: 5-HT3 (Rattus norvegicus, UniProt P35563)
# Sequence (P35563 24-483): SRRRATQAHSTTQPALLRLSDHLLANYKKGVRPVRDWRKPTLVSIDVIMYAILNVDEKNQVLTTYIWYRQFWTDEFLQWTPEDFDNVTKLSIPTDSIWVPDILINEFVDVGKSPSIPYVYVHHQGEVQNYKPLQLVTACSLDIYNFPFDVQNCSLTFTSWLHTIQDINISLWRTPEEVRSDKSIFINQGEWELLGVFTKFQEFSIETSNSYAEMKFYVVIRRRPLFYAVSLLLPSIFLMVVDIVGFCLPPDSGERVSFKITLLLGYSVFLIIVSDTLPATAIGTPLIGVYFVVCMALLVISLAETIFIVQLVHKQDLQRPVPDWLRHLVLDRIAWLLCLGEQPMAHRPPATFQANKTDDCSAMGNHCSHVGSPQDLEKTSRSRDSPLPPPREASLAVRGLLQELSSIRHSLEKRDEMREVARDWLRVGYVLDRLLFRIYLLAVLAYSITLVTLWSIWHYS
# Procedure details: biochemical
# Assay type: binding, Male Sprague-Dawley rats
# Measurement setup: 0.2 nM [3H]GR65630, rat entorhinal cortex, 40 minutes, room temperature; read-out: 5-HT3 IC50
Parameter: IC50 (nM)

Example cases with answers are listed next.
CN1Cc2nc[nH]c2C[C@H]1C(=O)c1cc2ccccc2s1 [Compd 32]: 234
CN1Cc2nc[nH]c2C[C@H]1C(=O)Nc1ccccc1Oc1ccccc1.Cl.Cl [Compd 27, dihydrochloride]: 6.92
CN1[C@H](C(=O)Nc2ccccc2O)Cc2[nH]cnc2C1(C)C [Compd 24]: 47.2

1 = CN1Cc2nc[nH]c2C[C@H]1C(=O)Nc1ccccc1Oc1cccc(C(F)(F)F)c1 [Compd 44]
2 = CN1Cc2nc[nH]c2C[C@H]1C(=O)Nc1nc2ccccc2s1 [Compd 22]
Determine, for 1 and 2 , which has the greater value of IC50. Return value: the label identifying the chosen record.
2

---

# Assayed system: 5-HT3 (Rattus norvegicus, UniProt P35563)
# Procedure details: biochemical
# Format: binding, Male Sprague-Dawley rats
# Measurement setup: 0.2 nM [3H]GR65630, rat entorhinal cortex, 40 minutes, room temperature; read-out: 5-HT3 IC50
Parameter: IC50 (nM)

CN1Cc2nc[nH]c2C[C@H]1C(=O)Nc1ccccc1N: 3490
CN1Cc2nc[nH]c2C[C@H]1C(=O)Nc1cccc2nsnc12: 15.9
CN1Cc2nc[nH]c2C[C@H]1C(=O)Nc1ccccc1F: 335
CN1Cc2nc[nH]c2C[C@H]1C(=O)Nc1ccccc1NC(=O)c1ccccc1: 289
COc1ccc(Cl)cc1NC(=O)[C@@H]1Cc2[nH]cnc2CN1C: 6.26

a = CN1Cc2nc[nH]c2C[C@H]1C(=O)Nc1c(F)cccc1F
b = CC(=O)c1ccccc1NC(=O)[C@@H]1Cc2[nH]cnc2C(C)(C)N1
c = CC(=O)c1ccccc1NC(=O)[C@H]1Cc2[nH]cnc2CN1C
Please order the records by their reported IC50, lowest number first. Enter labels, ranked according to the request.
c, b, a
